Test: Cynomolgus monkey tolerability, kidney and liver function markers (Example 34)
Settings: cynomolgus monkeys, 35 mg/kg subcutaneously, day 44
MEASUREMENT LABEL: GGT (IU/L)

substance="1198440 (AAGTGTATGTCAGAAG; cEt, 2'-MOE, 5-methylcytosine, phosphorothioate modifications, further chemistry not given here) [compound 1198440]" val=80
substance="1076453 (GTAATATTGCAATCTG; 3-10-3 cEt gapmer, further chemistry not given here) [compound 1076453]" val=78
substance="1198605 (GTAATATTGCAATCTG; modified gapmer, further chemistry not given here) [compound 1198605]" val=85
substance="1198728 (TATTAGAGTATGTGGC; modified gapmer, further chemistry not given here) [compound 1198728]" val=59
substance="958499 (ATTAGAGTATGTGGCA; 3-10-3 cEt gapmer, further chemistry not given here) [compound 958499]" val=67
substance="1197270 (TTAAAGTGTATGTCAG; cEt gapmer with 2'-OMe nucleoside, phosphorothioate, further chemistry not given here) [compound 1197270]" val=75
substance="1198439 (AGTGTATGTCAGAAGA; sugar, 5-methylcytosine, phosphorothioate modifications, further chemistry not given here) [compound 1198439]" val=63
